# SYSTEM_TESTED: GABA-A receptor; alpha-1/beta-2/gamma-2 (Rattus norvegicus) (UniProt P18508+P62813+P63138)
# ASSAY_TEXT: Electrophysiological effect on rat alpha-1-beta-2-gamma-2 GABA-A receptor subunits expressed in xenopus laevis oocytes at 1 uM
# Type: functional, cell-based
# DETAILS: Oocyte
MEASUREMENT_TYPE: Activity

q: Recorded Activity of C[C@]12CCC3C(CC[C@H]4C[C@H](O)CC[C@]34C)C1CCCN2C(=O)C(F)(F)F (some centres undefined) , please.
a: 1.91

q: Quick one: `CC(=O)[C@H]1CC[C@H]2[C@@H]3CC[C@@H]4C[C@H](O)CC[C@]4(C)[C@H]3CC[C@]12C`
a: 1.92

q: Quick one: C[C@]12CCC3C(CC[C@@H]4C[C@H](O)CC[C@]34C)C1CCCN2C(=O)CO (some centres undefined)
a: 1.57

q: Quick one: CC(=O)N1CCCC2C3CC[C@H]4C[C@H](O)CC[C@]4(C)C3CC[C@@]21C (some centres undefined)
a: 1.66
